Test system: PC-3 prostate
Experiment: NCI tumour cell line growth inhibition, 48 h
Listed here are compounds together with their documented TGI.

Worked cases, TGI given:
>>> recorded_measurement("CCC1CN(C(=O)c2ccccc2)C(Cc2c[nH]c3ccccc23)C(=O)C1CC(=O)OC (centres undefined)")
"> 100 µM"
>>> recorded_measurement("CCn1c(-c2ccc(N=NNc3ccc(-c4n[nH]c(=S)n4CC)cc3)cc2)n[nH]c1=S")
"8.34 µM"
>>> recorded_measurement("O=C1c2cccc(NCCN=Cc3cc([N+](=O)[O-])ccc3O)c2C(=O)c2c(NCCN=Cc3cc([N+](=O)[O-])ccc3O)cccc21")
"> 100 µM"

Problem: Returns the measured TGI for the input compound. Input: COc1c(O)cc2oc(-c3ccc(O)cc3)cc(=O)c2c1O
Result: > 100 µM

Problem: What do you get for CC(C)=CCC/C(=C/CC/C(=C\CCc1ccoc1)C(=O)O)C(=O)O ?
Result: > 100 µM

Problem: Here is the next compound: NC(=O)c1c(NC(=O)c2ccccn2)sc2c1CCC(=O)C2
Result: > 100 µM
